test system: Bacillus subtilis; test: Antibacterial activity against Bacillus subtilis assessed as growth inhibition after 24 hr by two fold serial dilution method; type: functional
quantity: MIC (µg/mL)
State the answer as a number, implicitly in µg/mL.

See these solved cases before continuing.
>>> measurement("O=C(/C=C/C=C/c1ccc2c(c1)OCO2)N[C@@H](Cc1c[nH]c2ccccc12)C(=O)O")
400
>>> measurement("CC1(C)S[C@@H]2[C@H](NC(=O)[C@H](N)c3ccccc3)C(=O)N2[C@H]1C(=O)O")
10
>>> measurement("O=C(/C=C/C=C/c1ccc2c(c1)OCO2)Nc1ccc(Br)cc1")
500

Task: What value of MIC has been recorded for this entry: O=C(/C=C/C=C/c1ccc2c(c1)OCO2)Nc1ccc(Cl)cc1
Result: 500

Task: What value of MIC has been recorded for this entry: O=C(/C=C/C=C/c1ccc2c(c1)OCO2)N1CCCCC1
Result: 500

Task: What value of MIC has been recorded for this entry: O=C(/C=C/C=C/c1ccc2c(c1)OCO2)N[C@@H](Cc1cnc[nH]1)C(=O)O
Result: 300

Task: What value of MIC has been recorded for this entry: O=C(/C=C/C=C/c1ccc2c(c1)OCO2)N[C@@H](Cc1ccccc1)C(=O)O
Result: 400

// provenance: ChEMBL document CHEMBL3045305
